meta.source: patent US20120045393A1

- assay_target: T1, LHRH binding sites on EFO-27 human ovarian cancer cells (human)
- T1 chain: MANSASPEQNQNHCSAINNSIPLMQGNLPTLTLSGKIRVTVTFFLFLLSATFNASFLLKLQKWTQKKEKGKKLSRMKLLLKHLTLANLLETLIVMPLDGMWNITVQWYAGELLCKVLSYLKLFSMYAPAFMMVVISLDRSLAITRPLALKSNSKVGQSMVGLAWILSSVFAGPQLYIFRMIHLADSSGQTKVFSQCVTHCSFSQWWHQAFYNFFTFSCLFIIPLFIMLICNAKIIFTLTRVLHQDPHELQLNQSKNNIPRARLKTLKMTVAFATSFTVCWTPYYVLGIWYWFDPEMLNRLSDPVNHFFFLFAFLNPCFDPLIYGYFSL
- protocol: competition with [125I-Tyr8]BRU-2477 on EFO-27 cells
pEC50: −log10 of the molar value. Non-standard residues stand in square brackets, D forms with d. Bpa = N[C@@H](Cc1ccc(C(=O)c2ccccc2)cc1)C(=O)O; d2Nal = N[C@H](Cc1ccc2ccccc2c1)C(=O)O; DO3A10CM = not defined here; azaGly = NNC(=O)O
Parameter: pEC50. Scope: all listed entries.

| binder | pEC50 |
| --- | --- |
| XRRSHXWXPX (DO3A10CM on N-terminus; AA1 Dnal2; AA6 Darg; AA8 Bpa4; AA10 azaGly-NH2, AA3 Arg) [BRU-3111] | 6.60 |
| DO3A10CM-[d2Nal]RESH[dR]W[Bpa]P[azaGly]-NH2 (reading uncertain, AA3 Glu) [BRU-3110] | 5.59 |
| DO3A10CM-[d2Nal]RLSH[dR]W[Bpa]P[azaGly]-NH2 (reading uncertain, AA3 Leu) [BRU-3108] | 6.25 |
| XRFSHXWXPX (DO3A10CM on N-terminus; AA1 Dnal2; AA6 Darg; AA8 Bpa4; AA10 azaGly-NH2, AA3 Phe) [BRU-3106] | 6.37 |
